Provenance of the data: patent US9499550B2

So I've got a bunch of molecules here, and I need their EC50 values.
Test system: HCV genotype 1b (Con1) replicon in HUH-7 cells
Test: HCV replicon luciferase reporter assay, genotype 1b
Assay type: cell-based
Settings: Hepatitis C virus, Huh-7, 72 h, HCV genotype 1b replicon luciferase, 3 days incubation, read-out: LE_1b (EC50, range)

- CCOc1nnc(O[C@@H]2C[C@H]3C(=O)N[C@]4(C(=O)NS(=O)(=O)C5CC5)C[C@H]4/C=C\CC[C@@H](C)C[C@@H](C)[C@H](NC(=O)OC(C)(C)C(F)(F)F)C(=O)N3C2)c2ccccc12: < 5.46 nM

Now for another entry.
Q: Entry under review: "CC[C@@H]1C[C@H](C)CC/C=C\[C@@H]2C[C@@]2(C(=O)NS(=O)(=O)C2CC2)NC(=O)[C@@H]2C[C@@H](Oc3nccc4c5c(ccc34)N(C)CCO5)CN2C(=O)[C@H]1NC(=O)OC(C)(C)C(F)(F)F" . Reported EC50?
A: < 5.46 nM
